test system: SH-SY5Y cells; experiment: Chemotype enrichment analysis of PKIS2 primary screen hit categories
Observation type: Outcome

Reference set, count: 6
Compound	Outcome
O=C(Nc1n[nH]c2nc(-c3ccc(O)cc3)ccc12)C1CC1	DQ Only
O=C1NC(=O)C(N2CCc3ccccc32)=C1c1cccc(Cl)c1 [UNC10225137A]	TFE3
Nc1n[nH]c2nnc(-c3ccccc3)cc12	DQ Only
COc1cccc(C2=C(Nc3cccc(C(=O)O)c3)C(=O)NC2=O)c1 [UNC10225061A]	TFE3
O=C(Nc1n[nH]c2nc(-c3ccccc3)c(Cl)cc12)C1CC1	DQ Only
CN(C1=C(c2ccccc2)C(=O)NC1=O)c1ccccc1 [UNC10225087A]	TOXIC

Lookup: Supply measured Outcome of COc1ccc(C2=C(Nc3cccc(O)c3)C(=O)NC2=O)cc1 [UNC10225299A] in your reply.
Found: DQ Only

Lookup: Quick one: give measured Outcome for O=C(Nc1n[nH]c2nc(-c3ccco3)c(Br)cc12)C1CCN(Cc2ccccc2)C1 (stereo not drawn)
Found: TFE3

Lookup: Identify measured Outcome corresponding to O=C(Nc1n[nH]c2nc(-c3cccc(O)c3)ccc12)C1CC1
Found: TFE3
